Target: T1, Rhesus GIPR (rhesus, UniProt F7E1R9 22-466)
T1 sequence: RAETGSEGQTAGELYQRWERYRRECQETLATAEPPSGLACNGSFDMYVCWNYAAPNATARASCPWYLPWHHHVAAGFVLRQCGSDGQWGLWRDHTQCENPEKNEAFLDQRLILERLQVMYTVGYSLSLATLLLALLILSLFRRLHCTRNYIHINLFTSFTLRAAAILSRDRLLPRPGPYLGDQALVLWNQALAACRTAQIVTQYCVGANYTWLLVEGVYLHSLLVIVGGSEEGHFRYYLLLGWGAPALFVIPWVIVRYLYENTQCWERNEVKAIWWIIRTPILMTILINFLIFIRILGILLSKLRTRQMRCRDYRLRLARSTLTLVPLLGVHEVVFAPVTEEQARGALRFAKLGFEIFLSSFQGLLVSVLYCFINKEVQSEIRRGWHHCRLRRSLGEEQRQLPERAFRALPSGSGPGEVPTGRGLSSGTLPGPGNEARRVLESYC
Test: cell-based or functional assay
Each entry falls in a class defined on Rhesus GIPR CAMP Assay (Conc. mAb @ 60% Inhibition in nM); the bands are lower: < 0.4 nM; middle: ≥ 0.4 nM and < 0.9 nM; upper: ≥ 0.9 nM

Which category does the recorded Rhesus GIPR CAMP Assay (Conc. mAb @ 60% Inhibition in nM) put 17B11.002.004 (antibody, human IgG1, lambda, N297G, V domains shown) VH: QMQLVQSGAEVKKPGASVKVSCKASGYTFTSYDINWVRQAPGQGLEWMGWMNPNSGGTGYAQKFQGRVTMTRDTSISTAYMELSSLRSDDTAVYYCARGGDYVWGSYRPYYYYYGMDVWGQGTTVTVSS VL: QSVLTQPPSVSAAPGQKVTISCSGSSSNIGNNYVSWYQQLPGTAPKLLIYDNNKRPSGIPDRFSGSKSGTSATLAITGLQTGDEADYYCGTFESSLSAVVFGGGTKLTVLG in?
lower

Which category does the recorded Rhesus GIPR CAMP Assay (Conc. mAb @ 60% Inhibition in nM) put 17B11.002 (antibody, human IgG1, lambda, N297G, V domains shown) VH: QMQLVQSGAEVKKPGASVKVSCKASGYTFTSYDINWVRQATGQGLEWMGWMNPNSGNTGYAQKFQGRVTMTRDTSISTAYMELSSLRSQDTAVYYCARGGDYVWGSYRPYYYYYGMDVWGQGTTVTVSS VL: QSVLTQPPSVSAAPGQKVTISCSGSSSNIGNNYVSWYEQFPGTAPKLLIYDNNKRPSGIPDRFSGSKSGTSATLGITGLQTGDEADYYCGTWDSSLSAVVFGGGTKLTVLG in?
lower

Which category does the recorded Rhesus GIPR CAMP Assay (Conc. mAb @ 60% Inhibition in nM) put 5G12.006.005 (antibody, human IgG1, kappa, N297G, V domains shown) VH: QVQLVESGGGVVQPGRSLRLSCAASGFTFSSYGIHWVRQAPGKGLEWVAVIWYDASNKFHADSVKGRFTISRDNSKNTLYLQMNSLRAEDSAMYFCARGKVAGMPEAFEIWGQGTKVTVSS VL: DIQLTQSPSSLSASVGDRVTITCRASQTISRFLNWYQQKPGKAPELLIYVASSLQSGVPSRFSGSGSGTDFTLTISSLQPEDFATYYCQQSYSTLISFGQGTKLEIKR in?
upper

Which category does the recorded Rhesus GIPR CAMP Assay (Conc. mAb @ 60% Inhibition in nM) put 18F2.003 (antibody, human IgG1, kappa, N297G, V domains shown) VH: QVQLVESGGGVVQPGRSLRLSCAASGFTFSNFGMHWVRQAPGKGLEWVAVIWYDASNENYADAVKGRFTISRDNSKNTLYLHMNSLRAADTAVYYCARDGTIFGVVLGDYWGQGTLVTVSS VL: DIQMTQSPSSLSASIGDRVTITCRASQDLRNYLGWYQQKPGKAPKLLIYGASSLQSGVPSRFSGSGSGTEFTLTISSLQPEDFATYYCLQHNNYPFTFGPGTKVDIKR in?
upper

Which category does the recorded Rhesus GIPR CAMP Assay (Conc. mAb @ 60% Inhibition in nM) put 17B11.002.003 (antibody, human IgG1, lambda, N297G, V domains shown) VH: QMQLVQSGAEVKKPGASVKVSCKASGYTFTSYDINWVRQATGQGLEWMGWMNPNSGGTGYAQKFQGRVTMTRDTSISTAYMELSSLRSQDTAVYYCARGGDYVWGSYRPYYYYYGMDVWGQGTTVTVSS VL: QSVLTQPPSVSAAPGQKVTISCSGSSSNIGNNYVSWYEQFPGTAPKLLIYDNNKRPSGIPDRFSGSKSGTSATLGITGLQTGDEADYYCGTWDSSLSAVVFGGGTKLTVLG in?
lower

Which category does the recorded Rhesus GIPR CAMP Assay (Conc. mAb @ 60% Inhibition in nM) put 18F2 (antibody, human IgG1, kappa, N297G, V domains shown) VH: QVQLVESGGGVVQPGRSLRLSCAASGFTFSNFGMHWVRQAPGKGLEWVAVIWYDGSNENYADSVKGRFTISRDNSKNTLYLHMNSLRAADTAVYYCARDGTIFGVVLGDYWGQGTLVTVSS VL: DIQMTQSPSSLSASIGDRVTITCRASQDLRNYLGWYHQKPGKAPKRLIYGASSLQSGVPSRFSGSGSGTEFTLTISSLQPEDFATYYCLQHNNYPFTFGPGTKVDIKR in?
middle

Which category does the recorded Rhesus GIPR CAMP Assay (Conc. mAb @ 60% Inhibition in nM) put 2F11.007 (antibody, human IgG1, kappa, N297G, V domains shown) VH: QVQLVESGGGVVQPGRSLRLSCAASGFTFSSYGMHWVRQAPGKGLEWVAVIWYDASNKYYADAVKGRFTISSDNSKNTLYLQMNSLRAEDTAVYYCARDRTIFGVVLDYWGQGTLVTVSS VL: DIQMTQSPSSLSASVGDRVTITCQASQDISNYLNWYQQKPGKAPKLLIYDASNLETGVPSRFSGSGSGTDFSFTISSLQPEDFATYYCQQYDILLTFGGGTKVEIKR in?
upper

Which category does the recorded Rhesus GIPR CAMP Assay (Conc. mAb @ 60% Inhibition in nM) put 6H1.007 (antibody, human IgG1, kappa, N297G, V domains shown) VH: QVQLVESGGGVVQPGRSLRLSCAASGFTFSYFGMHWVRQAPGKGLEWVAVIWYDASNKYYADSVKGRFTISRDNSKNTLYLQMNSLRAEDTAVYYCARDGTIFGVLLGDYWGQGTLVTVSS VL: DIQMTQSPSSLSASIGDRVTITCRASQDIRDYLGWYQQKPGKAPKLLIYGASSLQSGVPSRFSGSGSGTEFTLTISSLQPEDFATYYCLQHNNYPFTFGPGTKVDIKR in?
middle
